This collection of values is drawn from patent US20240299559A1.

Each entry below lists one item and its recorded Ki value.
Target: CRBN-DDB1 (Homo sapiens)
Sequence (Q96SW2 whole entry): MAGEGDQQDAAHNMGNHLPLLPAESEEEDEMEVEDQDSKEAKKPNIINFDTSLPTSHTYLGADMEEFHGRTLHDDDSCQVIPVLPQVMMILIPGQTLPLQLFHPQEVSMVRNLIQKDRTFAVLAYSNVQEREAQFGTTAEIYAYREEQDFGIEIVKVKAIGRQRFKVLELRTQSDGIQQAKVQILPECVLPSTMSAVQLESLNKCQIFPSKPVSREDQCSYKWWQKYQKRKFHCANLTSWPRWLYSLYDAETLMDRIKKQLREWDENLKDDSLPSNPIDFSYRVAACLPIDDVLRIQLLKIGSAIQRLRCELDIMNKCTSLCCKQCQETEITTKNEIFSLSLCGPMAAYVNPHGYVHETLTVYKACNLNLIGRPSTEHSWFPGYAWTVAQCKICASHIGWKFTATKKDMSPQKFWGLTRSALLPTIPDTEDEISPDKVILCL
Sequence (Q16531 whole entry partner): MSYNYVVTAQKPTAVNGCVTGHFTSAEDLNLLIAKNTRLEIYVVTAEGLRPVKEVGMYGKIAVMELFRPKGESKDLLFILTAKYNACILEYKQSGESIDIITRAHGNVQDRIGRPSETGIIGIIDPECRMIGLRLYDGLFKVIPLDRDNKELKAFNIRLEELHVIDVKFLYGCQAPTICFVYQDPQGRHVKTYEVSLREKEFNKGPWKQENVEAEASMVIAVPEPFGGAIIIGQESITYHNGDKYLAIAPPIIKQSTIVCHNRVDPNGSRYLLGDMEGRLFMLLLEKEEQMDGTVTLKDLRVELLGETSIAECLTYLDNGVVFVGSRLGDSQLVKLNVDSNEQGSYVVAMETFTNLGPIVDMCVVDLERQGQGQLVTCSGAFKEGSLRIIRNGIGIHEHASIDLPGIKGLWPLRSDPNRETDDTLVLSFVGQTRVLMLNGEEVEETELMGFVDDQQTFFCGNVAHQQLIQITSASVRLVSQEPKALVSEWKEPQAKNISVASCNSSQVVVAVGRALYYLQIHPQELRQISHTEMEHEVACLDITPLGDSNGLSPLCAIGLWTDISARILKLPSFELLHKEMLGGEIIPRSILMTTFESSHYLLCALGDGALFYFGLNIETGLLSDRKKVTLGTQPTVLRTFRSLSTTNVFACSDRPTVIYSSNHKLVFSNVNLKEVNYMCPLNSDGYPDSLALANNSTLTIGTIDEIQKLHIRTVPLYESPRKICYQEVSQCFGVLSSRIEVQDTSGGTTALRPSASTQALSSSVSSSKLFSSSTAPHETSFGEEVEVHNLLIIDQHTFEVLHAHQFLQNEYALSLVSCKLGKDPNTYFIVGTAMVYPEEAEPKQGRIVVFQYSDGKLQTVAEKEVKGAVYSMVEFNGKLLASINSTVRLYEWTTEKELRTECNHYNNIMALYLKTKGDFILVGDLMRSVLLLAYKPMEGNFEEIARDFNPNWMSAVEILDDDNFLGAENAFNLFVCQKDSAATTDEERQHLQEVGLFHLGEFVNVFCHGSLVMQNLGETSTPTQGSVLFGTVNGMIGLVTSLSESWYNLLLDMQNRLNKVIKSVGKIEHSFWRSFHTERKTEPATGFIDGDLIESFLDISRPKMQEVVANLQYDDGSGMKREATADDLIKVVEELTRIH
Test: Compound binding to CRBN by HTRF assay
Conditions: CRBN-DDB1 2.5 nM, Cy5-Thalidomide 100 nM probe; Ki from geometric mean of IC50 by Cheng-Prustoff transformation
MEASURED_METRIC: Ki

# COMPOUND, RESULT
records = [
    ("CC[C@H](Cc1ccccc1)OC(=O)NCc1ccc2c(c1)C(=O)N(C1CCC(=O)NC1=O)C2 (stereo partly shown)", "100 to 1000 nM"),
    ("O=C1CCC(N2Cc3ccc(CNC(=O)OCc4cccc(C(F)(F)F)c4)cc3C2=O)C(=O)N1 (stereo not shown)", "≤ 100 nM"),
    ("Cc1ccc(-c2cccc(COC(=O)NCc3ccc4c(c3)C(=O)N(C3CCC(=O)NC3=O)C4)c2)cc1 (stereo not shown)", "100 to 1000 nM"),
    ("O=C1CCC(N2Cc3ccc(CNc4nnc(-c5ccc(OC(F)(F)F)cc5)o4)c(O)c3C2=O)C(=O)N1 (stereo not shown)", "100 to 1000 nM"),
    ("COc1ccc2cc(COC(=O)NCc3ccc4c(c3)C(=O)N(C3CCC(=O)NC3=O)C4)ccc2c1 (stereo not shown)", "100 to 1000 nM"),
    ("O=C1CCC(N2Cc3ccc(CNC(=O)OCc4ccc(OC(F)(F)F)cc4F)cc3C2=O)C(=O)N1 (stereo not shown)", "≤ 100 nM"),
    ("CC(NC(=O)OCc1ccc(OC2CCOCC2)nc1)c1ccc2c(c1)C(=O)N(C1CCC(=O)NC1=O)C2 (stereo not shown)", "100 to 1000 nM"),
]

###

Biological target: CDK2 (Homo sapiens)
Construct: HEK293 clonal lines with CRISPR KI HiBiT tag on CDK2 proteins; host or cells: HEK293 clonal line with CRISPR knock-in HiBiT on CDK2, stably expressing LgBiT
Assay: CDK2 HiBiT assay (degradation, Dmax)
Format: cell-based
Settings: HEK293 clonal lines with CRISPR KI HiBiT tag on CDK2, stably expressing LgBiT; 24 hours incubation
Each entry below lists one item and its recorded Dmax value.

# COMPOUND, EXPERIMENTAL_SYSTEM, Dmax
measured = [
    ("O=C1CCC(N2Cc3ccc(CNC(=O)OCc4ccc(OC5CCOCC5)nc4)cc3C2=O)C(=O)N1 (centres unmarked)", "CDK2 (Homo sapiens)", "10 to 50%"),
    ("O=C1CCC(N2Cc3ccc(CNC(=O)OCc4ccc([N+](=O)[O-])cc4)cc3C2=O)C(=O)N1 (centres unmarked)", "CDK2 (Homo sapiens)", "10 to 50%"),
    ("O=C1CCC(N2Cc3ccc(CNC(=O)OCc4cccc(-c5cccc(C(F)(F)F)c5)c4)cc3C2=O)C(=O)N1 (centres unmarked)", "CDK2 (Homo sapiens)", "50 to 80%"),
    ("O=C1CCC(N2Cc3ccc(CNC(=O)OCc4ccc(OC(F)(F)F)cc4)cc3C2=O)C(=O)N1 (centres unmarked)", "CDK2 (Homo sapiens)", "10 to 50%"),
    ("COc1cc(COC(=O)NCc2ccc3c(c2)C(=O)N(C2CCC(=O)NC2=O)C3)ccc1F (centres unmarked)", "CDK2 (Homo sapiens)", "10 to 50%"),
    ("Cc1c(COC(=O)NCc2ccc3c(c2)C(=O)N(C2CCC(=O)NC2=O)C3)cccc1-c1ccccc1 (centres unmarked)", "CDK2 (Homo sapiens)", "50 to 80%"),
    ("N#Cc1cc(CNc2nnc(-c3ccccc3)o2)cc2c1CN(C1CCC(=O)NC1=O)C2=O (centres unmarked)", "CDK2 (Homo sapiens)", "10 to 50%"),
    ("COc1ccc2cc(COC(=O)NCc3ccc4c(c3)C(=O)N(C3CCC(=O)NC3=O)C4)ccc2c1 (centres unmarked)", "CDK2 (Homo sapiens)", "≤ 10%"),
]

###

Each entry below lists one item and its recorded Dmax value.
Molecular target: CDK2 (Homo sapiens, UniProt P24941)
Construct: HEK293 clonal lines with CRISPR KI HiBiT tag on CDK2 proteins; host or cells: HEK293 clonal line with CRISPR knock-in HiBiT on CDK2, stably expressing LgBiT
Experiment: CDK2 HiBiT assay (degradation, Dmax)
Format: cell-based
Details: HEK293 clonal lines with CRISPR KI HiBiT tag on CDK2, stably expressing LgBiT; 24 hours incubation
MEASURED_METRIC: Dmax

# MOLECULE, MEASURED_METRIC, RESULT
records = [
    ("Cc1ccc(COC(=O)NCc2ccc3c(c2)C(=O)N(C2CCC(=O)NC2=O)C3)cc1 (centres unmarked)", "Dmax", "≤ 10%"),
    ("COc1ccc(COC(=O)NCc2ccc3c(c2)C(=O)N(C2CCC(=O)NC2=O)C3)cc1C(C)C (centres unmarked)", "Dmax", "10 to 50%"),
    ("O=C1CCC(N2Cc3ccc(CCNC(=O)OCc4ccc(OC5CCOCC5)nc4)cc3C2=O)C(=O)N1 (centres unmarked)", "Dmax", "10 to 50%"),
    ("CC(NC(=O)OCc1ccc(OC2CCOCC2)nc1)c1ccc2c(c1)C(=O)N(C1CCC(=O)NC1=O)C2 (centres unmarked)", "Dmax", "10 to 50%"),
    ("O=C1CCC(N2Cc3ccc(CNC(=O)OCc4ccc(Cl)cc4)cc3C2=O)C(=O)N1 (centres unmarked)", "Dmax", "≤ 10%"),
]

###

Biological target: CDK2 (Homo sapiens, UniProt P24941)
Construct: HEK293 clonal lines with CRISPR KI HiBiT tag on CDK2 proteins; host or cells: HEK293 clonal line with CRISPR knock-in HiBiT on CDK2, stably expressing LgBiT
Assay: CDK2 HiBiT assay (degradation, Dmax)
Format: cell-based
Conditions: HEK293 clonal lines with CRISPR KI HiBiT tag on CDK2, stably expressing LgBiT; 24 hours incubation

# MOLECULE, Dmax
data = [
    ("CC(C)Oc1cccc(COC(=O)NCc2ccc3c(c2)C(=O)N(C2CCC(=O)NC2=O)C3)c1 (stereo not drawn) [Compound 38]", "10 to 50%"),
    ("O=C1CCC(N2Cc3ccc(CNC(=O)OCc4ccnc(-c5ccc(F)cc5)c4)cc3C2=O)C(=O)N1 (stereo not drawn) [Compound 5]", "10 to 50%"),
    ("Cc1ncsc1-c1ccc(COC(=O)NCc2ccc3c(c2)C(=O)N(C2CCC(=O)NC2=O)C3)cc1 (stereo not drawn) [Compound 52]", "10 to 50%"),
    ("O=C1CCC(N2Cc3ccc(CNC(=O)OCc4ccc(OCC5CC5)cc4)cc3C2=O)C(=O)N1 (stereo not drawn) [Compound 40]", "10 to 50%"),
    ("O=C1CCC(N2Cc3ccc(CNC(=O)OCc4ccc(C(F)(F)F)cc4)cc3C2=O)C(=O)N1 (stereo not drawn) [Compound 59]", "10 to 50%"),
    ("O=C1CCC(N2Cc3ccc(CNC(=O)OCc4ccccc4)cc3C2=O)C(=O)N1 (stereo not drawn) [Compound 20]", "10 to 50%"),
    ("CCOc1c(C)cc(COC(=O)NCc2ccc3c(c2)C(=O)N(C2CCC(=O)NC2=O)C3)cc1C (stereo not drawn) [Compound 34]", "10 to 50%"),
    ("O=C1CCC(N2Cc3ccc(CNC(=O)OCc4ccc(CN5CCCCC5)cc4)cc3C2=O)C(=O)N1 (stereo not drawn) [Compound 53]", "≤ 10%"),
    ("CC(C)COc1ccc(COC(=O)NCc2ccc3c(c2)C(=O)N(C2CCC(=O)NC2=O)C3)cc1 (stereo not drawn) [Compound 46]", "10 to 50%"),
    ("O=C1CCC(N2Cc3ccc(CNC(=O)OCc4ccc(CN5CCOCC5)cc4)cc3C2=O)C(=O)N1 (stereo not drawn) [Compound 55]", "≤ 10%"),
    ("O=C1CCC(N2Cc3ccc(CNC(=O)OCc4cccc(-c5ccc(F)cc5)n4)cc3C2=O)C(=O)N1 (stereo not drawn) [Compound 4]", "10 to 50%"),
    ("O=C1CCC(N2Cc3ccc(CNC(=O)OCc4ccc(C5CC5)cc4)cc3C2=O)C(=O)N1 (stereo not drawn) [Compound 64]", "10 to 50%"),
    ("O=C1CCC(N2Cc3ccc(CNc4nnc(-c5ccc(OC(F)(F)F)cc5)o4)c(O)c3C2=O)C(=O)N1 (stereo not drawn) [Compound 75]", "10 to 50%"),
    ("CCOc1ccc(COC(=O)NCc2ccc3c(c2)C(=O)N(C2CCC(=O)NC2=O)C3)c(C)c1 (stereo not drawn) [Compound 41]", "10 to 50%"),
    ("O=C1CCC(N2Cc3ccc(CNC(=O)OCc4ccc(N5CCCC5=O)cc4)cc3C2=O)C(=O)N1 (stereo not drawn) [Compound 17]", "10 to 50%"),
    ("O=C1CCC(N2Cc3ccc(CNC(=O)OCc4ccc(OCC(F)(F)F)cc4)cc3C2=O)C(=O)N1 (stereo not drawn) [Compound 62]", "10 to 50%"),
    ("O=C1CCC(N2Cc3ccc(CNc4nnc(-c5ccc(OC(F)(F)F)cc5)o4)cc3C2=O)C(=O)N1 (stereo not drawn) [Compound 71]", "50 to 80%"),
    ("O=C1CCC(N2Cc3ccc(CNC(=O)OCc4ccc([C@H]5CCC[C@@H]5O)cc4)cc3C2=O)C(=O)N1 (stereo partly drawn) [Compound 19]", "10 to 50%"),
    ("O=C1CCC(N2Cc3ccc(CNC(=O)OCc4cccc(-c5cccc(F)c5)c4)cc3C2=O)C(=O)N1 (stereo not drawn) [Compound 10]", "50 to 80%"),
    ("O=C1CCC(N2Cc3ccc(CNC(=O)OCc4ccc(C#CC(F)(F)F)cc4)cc3C2=O)C(=O)N1 (stereo not drawn) [Compound 50]", "10 to 50%"),
    ("O=C1CCC(N2Cc3ccc(CNC(=O)OCc4ccc(OC5CCOCC5)cc4)cc3C2=O)C(=O)N1 (stereo not drawn) [Compound 3]", "10 to 50%"),
    ("CCCc1ccc(COC(=O)NCc2ccc3c(c2)C(=O)N(C2CCC(=O)NC2=O)C3)cc1 (stereo not drawn) [Compound 43]", "10 to 50%"),
    ("C#CCOc1ccc(COC(=O)NCc2ccc3c(c2)C(=O)N(C2CCC(=O)NC2=O)C3)cc1 (stereo not drawn) [Compound 39]", "10 to 50%"),
    ("CSc1ccc(COC(=O)NCc2ccc3c(c2)C(=O)N(C2CCC(=O)NC2=O)C3)cc1Cl (stereo not drawn) [Compound 49]", "10 to 50%"),
    ("O=C1CCC(N2Cc3ccc(CNC(=O)OCc4cccc(OCC(F)(F)F)c4)cc3C2=O)C(=O)N1 (stereo not drawn) [Compound 54]", "10 to 50%"),
    ("CCC(C)(C)c1ccc(COC(=O)NCc2ccc3c(c2)C(=O)N(C2CCC(=O)NC2=O)C3)cc1 (stereo not drawn) [Compound 36]", "10 to 50%"),
    ("COc1ccc(-c2cccc(COC(=O)NCc3ccc4c(c3)C(=O)N(C3CCC(=O)NC3=O)C4)c2)cc1 (stereo not drawn) [Compound 58]", "10 to 50%"),
    ("O=C1CCC(N2Cc3ccc(CNC(=O)OCc4cccc(-c5ccc(F)cc5)c4)cc3C2=O)C(=O)N1 (stereo not drawn) [Compound 51]", "10 to 50%"),
    ("CSc1cccc(COC(=O)NCc2ccc3c(c2)C(=O)N(C2CCC(=O)NC2=O)C3)c1 (stereo not drawn) [Compound 35]", "10 to 50%"),
    ("O=C1CCC(N2Cc3ccc(CNC(=O)OCc4ccc(OC(F)F)cc4)cc3C2=O)C(=O)N1 (stereo not drawn) [Compound 33]", "10 to 50%"),
]
